- assay_target: Nuclear receptor subfamily 1 group I member 2 (Homo sapiens) (UniProt O75469)
- Sequence (O75469 whole entry, looked up): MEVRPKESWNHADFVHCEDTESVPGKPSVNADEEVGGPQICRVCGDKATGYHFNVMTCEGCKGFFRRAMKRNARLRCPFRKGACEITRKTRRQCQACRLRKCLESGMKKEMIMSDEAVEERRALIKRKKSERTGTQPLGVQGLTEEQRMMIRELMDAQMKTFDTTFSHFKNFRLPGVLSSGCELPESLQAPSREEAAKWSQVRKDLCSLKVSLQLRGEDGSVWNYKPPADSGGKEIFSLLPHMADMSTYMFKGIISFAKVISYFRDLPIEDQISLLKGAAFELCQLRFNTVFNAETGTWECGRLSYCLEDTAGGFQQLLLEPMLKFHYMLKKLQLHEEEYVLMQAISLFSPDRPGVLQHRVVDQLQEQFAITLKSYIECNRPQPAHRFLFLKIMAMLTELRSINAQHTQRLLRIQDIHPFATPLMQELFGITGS
- test_description: ATG_PXR_TRANS: Attagene TRANS-FACTORIAL HepG2 Assay for human Pregnane X Receptor (PXR) (AID 2283008)
Inconclusive results are not listed. Activity calls are given as the source filed them. The calls were made as follows: active = hit-call score of the fitted dose curve at least 0.9, where 1 is the maximum; inconclusive = response in the unintended direction; inactive = score below 0.9.
outcome_measure: AC50

Here's what some known entries look like.
{"molecule": "NC(=O)N(O)[C@@H]1COc2cc(OCc3ccccc3)ccc21", "AC50": "inactive"}
{"molecule": "C[Si](C)(C)C(F)(F)C(F)(F)C(F)(F)F", "AC50": "inactive"}
{"molecule": "CCc1ccc(O)c(C(C)(C)C)c1", "AC50": "17.4 µM (active)"}
{"molecule": "CCn1nc(C)c2c1C(=O)NCC(c1ccc(O)cc1)=N2", "AC50": "inactive"}
{"molecule": "CCCCCCCC1CCC(=O)O1 (stereo not given)", "AC50": "inactive"}

Continue with the next molecule.
AC50 for CCN(CC)C(=S)SSC(=S)N(CC)CC ?
49.6 µM (active)
